assay: Kinetic solubility of compound in SIF upto 500 uM measured after 16 hrs under shaking condition by UV-visible method; type: physicochemical; details: read-out: Kinetic_solubility

{"chemical-structure": "Cc1ccc([C@@H]2C[C@H](CN[C@H](C)c3cccc4ccccc34)Oc3ccccc32)cc1C(=O)O.Cl", "solubility kinetic at 16 h, 500 µM": "> 300 µM"}

----------
Below, each of the compounds is paired with its reported inhibition at 10 µM value.
target: CYP2D6 (Homo sapiens); experiment: Inhibition of CYP2D6 in human liver microsomes at 10 uM preincubated for 5 mins followed by NADPH addition by LC-MS/MS analysis relative to control; assay type: ADME, Microsome
Sequence (P10635 whole entry): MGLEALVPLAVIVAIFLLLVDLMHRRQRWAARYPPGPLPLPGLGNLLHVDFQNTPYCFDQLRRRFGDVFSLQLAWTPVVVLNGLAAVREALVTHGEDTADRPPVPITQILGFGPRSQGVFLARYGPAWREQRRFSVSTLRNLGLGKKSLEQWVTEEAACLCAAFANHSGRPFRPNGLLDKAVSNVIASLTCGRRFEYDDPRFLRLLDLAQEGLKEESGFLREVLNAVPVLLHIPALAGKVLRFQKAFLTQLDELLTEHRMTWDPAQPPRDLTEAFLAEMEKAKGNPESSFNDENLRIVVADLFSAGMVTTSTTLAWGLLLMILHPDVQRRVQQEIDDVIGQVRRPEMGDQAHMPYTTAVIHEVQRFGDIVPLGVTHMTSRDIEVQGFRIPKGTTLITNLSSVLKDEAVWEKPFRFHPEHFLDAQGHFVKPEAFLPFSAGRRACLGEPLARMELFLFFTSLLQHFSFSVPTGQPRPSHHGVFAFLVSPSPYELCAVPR

{"compound": "C[C@@H](NC[C@H]1C[C@@H](c2cccc(C(=O)O)c2)c2ccccc2O1)c1cccc2ccccc12", "u": "%", "inhibition at 10 µM": 35}
{"compound": "Cc1ccc(C(=O)O)cc1[C@@H]1C[C@H](CN[C@H](C)c2cccc3ccccc23)Oc2ccccc21", "u": "%", "inhibition at 10 µM": 36}
{"compound": "C[C@@H](NCC1CN(CC(F)(F)F)c2ccccc2O1)c1cccc2ccccc12 (stereo partly drawn)", "u": "%", "inhibition at 10 µM": 82}
